target: LmCpfC (Listeria monocytogenes, UniProt Q8Y565)
Sequence (Q8Y565 whole entry): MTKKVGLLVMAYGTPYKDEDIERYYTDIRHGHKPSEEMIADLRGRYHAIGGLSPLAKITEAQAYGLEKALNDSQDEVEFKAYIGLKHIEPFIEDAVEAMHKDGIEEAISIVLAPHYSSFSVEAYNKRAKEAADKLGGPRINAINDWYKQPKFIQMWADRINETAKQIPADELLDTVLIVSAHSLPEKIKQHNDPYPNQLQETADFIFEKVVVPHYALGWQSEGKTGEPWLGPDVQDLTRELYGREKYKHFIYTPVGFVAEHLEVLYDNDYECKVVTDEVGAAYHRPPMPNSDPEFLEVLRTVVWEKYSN
observation.type: Kd (µM)
Give the value in µM but do not write µM after it.

Item: CC1=C(CCC(=O)O)c2cc3nc(cc4[nH]c(cc5[nH]c(cc1n2)c(C)c5CCC(=O)O)c(CCC(=O)O)c4C)C(CCC(=O)O)=C3C Test system: LmCpfC (Listeria monocytogenes, UniProt Q8Y565) Read-out: Kd Value: ?
2
